FYI, the data here is from paper PMC8775902.

Where a SMILES comes first, the peptide text is derived from it. Bridges are numbered along the chain shown (N, C = ends). [ ]: non-standard residue; d: D form. d2Nal = N[C@H](Cc1ccc2ccccc2c1)C(=O)O; Nle = CCCC[C@H](N)C(=O)O; Ahx = NCCCCCC(=O)O; βAla = NCCC(=O)O
attribute measured: pIC50
The meaning of pIC50 here: minus log10 of the concentration in molar units.

query: Fill in the recorded pIC50 for this compound, with melanocortin-4 receptor (MC4R) (Homo sapiens, UniProt P32245) as test system: CCCC[C@H](NC(=O)CCCCCNC(=O)CCCCCNC(=O)[C@H](Cc1ccccc1)NC(=O)CNC(=O)[C@@H](C)NC(=O)[C@@H](N)Cc1ccc(O)cc1)C(=O)N[C@H]1CC(=O)NCCCC[C@@H](C(N)=O)NC(=O)[C@H](Cc2c[nH]c3ccccc23)NC(=O)[C@H](CCCNC(=N)N)NC(=O)[C@@H](Cc2ccc3ccccc3c2)NC(=O)[C@H](Cc2c[nH]cn2)NC1=O [Compound 4, ENK-(Ahx)2-SHU] (H-Y[dA]GF[Ahx][Ahx][Nle]DH[d2Nal]RWK-NH2; lactam 8-13)
Sequence (P32245 whole entry): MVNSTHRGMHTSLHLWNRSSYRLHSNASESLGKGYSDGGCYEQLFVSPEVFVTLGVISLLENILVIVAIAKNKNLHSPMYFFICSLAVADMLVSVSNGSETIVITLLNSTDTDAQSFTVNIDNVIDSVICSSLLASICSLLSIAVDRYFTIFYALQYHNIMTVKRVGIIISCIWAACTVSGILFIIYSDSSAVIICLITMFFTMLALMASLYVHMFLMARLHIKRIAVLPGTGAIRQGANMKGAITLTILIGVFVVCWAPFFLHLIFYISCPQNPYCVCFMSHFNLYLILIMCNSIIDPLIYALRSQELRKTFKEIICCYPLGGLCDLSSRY
result: 9.30

query: Lab note: need pIC50 for CCCC[C@H](NC(=O)[C@@H](C)NC(=O)[C@H](Cc1ccccc1)NC(=O)CNC(=O)[C@@H](C)NC(=O)[C@@H](N)Cc1ccc(O)cc1)C(=O)N[C@H]1CC(=O)NCCCC[C@@H](C(N)=O)NC(=O)[C@H](Cc2c[nH]c3ccccc23)NC(=O)[C@H](CCCNC(=N)N)NC(=O)[C@@H](Cc2ccc3ccccc3c2)NC(=O)[C@H](Cc2c[nH]cn2)NC1=O [Compound 1, ENK-D-Ala-SHU] (H-Y[dA]GF[dA][Nle]DH[d2Nal]RWK-NH2; lactam 7-12) on melanocortin-4 receptor (MC4R) (Homo sapiens, UniProt P32245), anyone have it?
result: 10.15

query: Param readout= pIC50; system= melanocortin-4 receptor (MC4R) (Homo sapiens, UniProt P32245); entry= CCCC[C@H](NC(=O)CCNC(=O)[C@H](Cc1ccccc1)NC(=O)CNC(=O)[C@@H](C)NC(=O)[C@@H](N)Cc1ccc(O)cc1)C(=O)N[C@H]1CC(=O)NCCCC[C@@H](C(N)=O)NC(=O)[C@H](Cc2c[nH]c3ccccc23)NC(=O)[C@H](CCCNC(=N)N)NC(=O)[C@@H](Cc2ccc3ccccc3c2)NC(=O)[C@H](Cc2c[nH]cn2)NC1=O [Compound 2, ENK-β-Ala-SHU] (H-Y[dA]GF[βAla][Nle]DH[d2Nal]RWK-NH2; lactam 7-12) ; returns value.
result: 9.92

query: Could you share what pIC50 was measured for CCCC[C@H](NC(=O)CCCCCNC(=O)[C@H](Cc1ccccc1)NC(=O)CNC(=O)[C@@H](C)NC(=O)[C@@H](N)Cc1ccc(O)cc1)C(=O)N[C@H]1CC(=O)NCCCC[C@@H](C(N)=O)NC(=O)[C@H](Cc2c[nH]c3ccccc23)NC(=O)[C@H](CCCNC(=N)N)NC(=O)[C@@H](Cc2ccc3ccccc3c2)NC(=O)[C@H](Cc2c[nH]cn2)NC1=O [Compound 3, ENK-Ahx-SHU] (H-Y[dA]GF[Ahx][Nle]DH[d2Nal]RWK-NH2; lactam 7-12) , tested on melanocortin-4 receptor (MC4R) (Homo sapiens, UniProt P32245)?
result: 8.74
